src = PubChem BioAssay AID1851

STUDY_TARGET: Cytochrome P450 2C19 (Homo sapiens)
ASSAY_COMMENT: Cytochrome panel assay with activity outcomes
ASSAY_CONDITIONS: recombinant CYP, pro-luciferin dealkylation, luminescence, p450-cyp2c19; series mostly up to 57.1 µM
Among all 16,000 compounds or so, about 5,800 (36%) were called active. About 23% were inconclusive and are not listed. Calls follow the shape of the dose curve; as a rule, active = well fitted curve in the direction sought with a large enough effect; inconclusive = small, poorly fitted or top-dose-only effect, or effect the other way; inactive = no such curve, though single readings can be large or run the other way. The list shows a part of the results.
Use one of these outcomes when replying: TRUE for active, FALSE for inactive

Some entries whose results are on file:
CCc1ccc(N(C(=O)c2snc(C(N)=O)c2N)C(C(=O)NCCC(C)C)c2c[nH]c3ccccc23)cc1 (stereo unspecified); TRUE
Cc1cnc(CNc2cc(-c3ccccc3Cl)ncn2)cn1; FALSE
O=C(O)c1cc([N+](=O)[O-])ccc1NCCCc1ccccc1; FALSE
CCc1cc2c(Sc3nc4ccccc4s3)ncnc2s1; TRUE
Cn1cccc1C(=O)N1CCC2(CCN(Cc3nccs3)CC2)CC1; FALSE
COc1ccccc1-c1cc(NCc2ccccc2)ncn1; TRUE

Dear colleague, could you share the recorded outcome for `FC(F)Sc1ccc(N=C2NN=C(c3ccc4c(c3)OCCO4)CS2)cc1` when you have a moment?
TRUE

Check the results log: what was the call for `Nc1nc2c(c(=O)[nH]1)N(C=O)[C@H](CNc1ccc(C(=O)N[C@@H](CCC(=O)O)C(=O)O)cc1)CN2` ?
FALSE

Hi, do you know how `COc1ccccc1-c1cc(NCc2cnc(C)cn2)ncn1` came out in this test?
TRUE

What is the recorded call for this compound in the test? `CN(Cc1ccccc1)c1nc(-c2ccc([N+](=O)[O-])cc2)nc2ccccc12`
FALSE

# lookup: test call for `COc1ccc([N+](=O)[O-])cc1NCc1ccccc1C`
TRUE

====

STUDY_TARGET: Cytochrome P450 2C19 (Homo sapiens) (UniProt P33261)
Sequence (P33261 whole entry, looked up): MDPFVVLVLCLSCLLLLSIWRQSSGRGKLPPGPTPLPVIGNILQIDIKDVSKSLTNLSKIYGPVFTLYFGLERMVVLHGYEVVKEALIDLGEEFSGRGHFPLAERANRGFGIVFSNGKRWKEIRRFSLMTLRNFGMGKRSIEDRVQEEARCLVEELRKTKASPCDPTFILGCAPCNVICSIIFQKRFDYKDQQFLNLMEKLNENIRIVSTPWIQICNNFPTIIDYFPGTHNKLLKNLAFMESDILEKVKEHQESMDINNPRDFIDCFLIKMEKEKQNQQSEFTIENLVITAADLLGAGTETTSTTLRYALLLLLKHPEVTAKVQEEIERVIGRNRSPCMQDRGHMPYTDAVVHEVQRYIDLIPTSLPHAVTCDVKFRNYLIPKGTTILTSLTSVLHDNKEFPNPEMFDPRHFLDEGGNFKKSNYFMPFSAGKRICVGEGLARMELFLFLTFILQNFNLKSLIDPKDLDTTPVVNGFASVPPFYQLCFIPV
ASSAY_COMMENT: Cytochrome panel assay with activity outcomes
ASSAY_CONDITIONS: recombinant CYP, pro-luciferin dealkylation, luminescence, p450-cyp2c19; series mostly up to 57.1 µM
Description: The P450 gene superfamily is involved in the metabolism and clearance of xenobiotics. This assay used various human CYP P450 isozymes to measure the dealkylation of various pro-luciferin substrates to luciferin. The luciferin is then measured by luminescence after the addition of a luciferase detection reagent. […] Inhibitors and some substrates limit the production of luciferin, and decrease measured luminescence. […] 8, Detection, 1 sec, ViewLux luminescent read […]
Hit rate of the full screen: of about 16,000 compounds, about 5,800 (36%) were called active. Inconclusive results (about 23%) are left out. This is one part of the list.
MEASURED_ATTRIBUTE: AC50

Some solved cases for reference:
Cn1c(=O)cc(SCC(=O)NCCN2CCN(c3ccccc3F)CC2)c2cc(Cl)ccc21; 11.2 µM (active)
CCC1CC(CSc2ncn[nH]2)OC1=O (stereo unspecified); inactive
Nc1cc(=O)nc(SCC(=O)Nc2cccc3ccccc23)n1CCc1ccccc1; 14.1 µM (active)
Cc1cccc[n+]1CC(=O)Nc1ccc([N+](=O)[O-])cc1Cl; 3.16 µM (active)
Cc1cc2nc(SCCOC(=O)Nc3ccc(Cl)cc3)nc(C)c2cc1C; 0.794 µM (active)
CCCCOc1ccc(CN2CCC(O)CC2)cc1; inactive
COc1ccc(-c2nc3cnc(OC)nc3n(C)c2=O)cc1; inactive
CC(=O)Nc1c(I)c(C(=O)N[C@H]2[C@@H](O)[C@H](O)[C@H](CO)O[C@@H]2O)c(I)c(N(C)C(C)=O)c1I; inactive
CCC(Sc1nc(=O)cc(N)n1CCc1ccccc1)C(=O)Nc1ccccc1C#N (stereo unspecified); 11.2 µM (active)
CCOC(=O)c1ccc(-c2ccc(CO)o2)cc1; 28.2 µM (active)

--- query ---
// assay Cytochrome P450 2C19 (Homo sapiens) (UniProt P33261), entry `CCOc1ccc(OCCOCCN2CCc3ccccc3C2)cc1` , AC50 value = 14.1 µM (active)

====

STUDY_TARGET: Cytochrome P450 2C19 (Homo sapiens)
ASSAY_COMMENT: Cytochrome panel assay with activity outcomes
ASSAY_CONDITIONS: recombinant CYP, pro-luciferin dealkylation, luminescence, p450-cyp2c19; series mostly up to 57.1 µM
Out of some 16,000 compounds screened, about 5,800 (36%) were called active. Not shown: some 23% with an inconclusive outcome. Calls come from the whole dose curve; as a rule, active = well fitted curve in the direction sought with a large enough effect; inconclusive = small, poorly fitted or top-dose-only effect, or effect the other way; inactive = no such curve, though single readings can be large or run the other way. The list shows a part of the results.
Thanks in advance; please answer with one of these: active, inactive

# count of solved cases: 5
Cc1ccc(N=Cc2cc(C)n(C3CCCC3)c2C)cc1; active
COc1[nH]c2ccc(F)cc2c1C(=O)OCC1CCN(CCNS(C)(=O)=O)CC1; inactive
COc1ccc(-n2c(=O)c(-c3cccs3)nc3cnc(N4CCNCC4)nc32)cc1; inactive
Cc1ccc(S(=O)(=O)c2nc(S(=O)(=O)c3ccc(C)cc3)c(NCc3ccco3)s2)cc1; active
OC(c1ccccc1)(c1ccc(F)cc1)C(c1ccccc1)N1CCOCC1 (configuration not stated); active

# input for lookup
# lookup: test call for `CS(=O)(=O)Nc1cccc(-c2ccc3ncnc(NCCN4CCOCC4)c3c2)c1`
inactive

====

STUDY_TARGET: Cytochrome P450 2C19 (Homo sapiens) (UniProt P33261)
ASSAY_COMMENT: Cytochrome panel assay with activity outcomes
ASSAY_CONDITIONS: recombinant CYP, pro-luciferin dealkylation, luminescence, p450-cyp2c19; series mostly up to 57.1 µM
The whole screen tested about 16,000 compounds, of which about 5,800 (36%) were called active. Another 23% or so got no clear call; they are omitted. Calls come from the whole dose curve; as a rule, active = well fitted curve in the direction sought with a large enough effect; inconclusive = small, poorly fitted or top-dose-only effect, or effect the other way; inactive = no such curve, though single readings can be large or run the other way. The list shows a part of the results.
In this exercise, the only acceptable responses are active, inactive

Reference set, count: 3
Cc1ccc(-n2c3c(c(=O)[nH]c2=O)C(NS(=O)(=O)c2ccc(C)cc2)(C(F)(F)F)C(=O)N3)cc1 (stereo not given); inactive
COC(=O)c1[nH]c2ccc(Br)cc2c1NC(=O)CN1CCN(C2CCCCC2)CC1; active
CN[C@H](CC(=O)O)C(=O)O; inactive

Now consider a different compound.
Entry `O=C(c1ccncc1)N1CCC2(CC1)CCN(c1ncccn1)CC2` : call = ?
active

====

STUDY_TARGET: Cytochrome P450 2C19 (Homo sapiens) (UniProt P33261)
ASSAY_COMMENT: Cytochrome panel assay with activity outcomes
ASSAY_CONDITIONS: recombinant CYP, pro-luciferin dealkylation, luminescence, p450-cyp2c19; series mostly up to 57.1 µM
About 5,800 (36%) of roughly 16,000 compounds were called active. About 23% were inconclusive and are not listed. The call rests on the fitted dose curve; in most records, active means well fitted curve in the direction sought with a large enough effect; inconclusive means small, poorly fitted or top-dose-only effect, or effect the other way; inactive means no such curve, though single readings can be large or run the other way. The list shows a part of the results.
Give your call using only these classes: active, inactive

Cc1noc(C)c1-c1cncnc1NC1CC1; inactive
CC(C)NC[C@@H](O)COc1cccc2ccccc12; inactive
CN(Cc1ccco1)c1ncncc1-c1ccccc1Cl; active
O=C(COc1cccc2ccccc12)N1c2ccccc2CCc2ccccc21; active
Cc1ccc(NC(=O)/C(=C\c2ccc3c(c2)OCO3)NC(=O)c2ccco2)cc1; inactive

Now let's try a different one.
// return assay outcome for Fc1ccc(C2CC(c3ccco3)=NN2c2ccccc2)cc1 (stereo unspecified)
active

====

STUDY_TARGET: Cytochrome P450 2C19 (Homo sapiens) (UniProt P33261)
ASSAY_COMMENT: Cytochrome panel assay with activity outcomes
ASSAY_CONDITIONS: recombinant CYP, pro-luciferin dealkylation, luminescence, p450-cyp2c19; series mostly up to 57.1 µM
In all, about 16,000 compounds went through this assay and about 5,800 (36%) were called active. Not shown: some 23% with an inconclusive outcome. The call rests on the fitted dose curve; in most records, active means well fitted curve in the direction sought with a large enough effect; inconclusive means small, poorly fitted or top-dose-only effect, or effect the other way; inactive means no such curve, though single readings can be large or run the other way. This is one part of the list.
Outcome field: choose from active, inactive

CCN(CC)C(=O)C(=O)N/N=C/c1cccc(Br)c1; active
CCCCCCCCC(=O)N/N=C/c1ccccn1; active
CCCCCCCCCCCCCCCC(=O)NC(C)C; inactive
C[C@@H](C(=O)Nc1ccc2ccccc2c1)[C@H]1C[C@]1(C)[C@H](NC(=O)OCc1ccccc1)c1ccccc1; active

Short answer needed: outcome of this test for CC(=O)NC1=NC(=O)C(C)S1 (stereo unspecified) ?
inactive

Recorded call for `CCCCCCCCC(=O)N/N=C/c1cccc(Br)c1` ?
active

====

STUDY_TARGET: Cytochrome P450 2C19 (Homo sapiens) (UniProt P33261)
ASSAY_COMMENT: Cytochrome panel assay with activity outcomes; as to activity, negative = inhibition: % is scaled to controls: 0 for no effect and ±100 for the full control effect
ASSAY_CONDITIONS: recombinant CYP, pro-luciferin dealkylation, luminescence, p450-cyp2c19; series mostly up to 57.1 µM
Hit rate of the full screen: of about 16,000 compounds, about 5,800 (36%) were called active. Inconclusive results (about 23%) are left out. The list shows a part of the results.
I'd appreciate it if you could supply activity, negative = inhibition values for the items below.

Below are worked cases with known answers.
COc1ccc2c3c([nH]c2c1)[C@H]1C[C@@H]2[C@@H](C[C@@H](O)[C@H](OC)[C@H]2C(=O)O)CN1CC3; 19% [at 11.4 µM] (inactive)
O=C(NCc1cccnc1)[C@@H]1[C@@H](C(=O)O)[C@H]2CC[C@@H]1O2; 23.6% [at 11.4 µM] (inactive)
N=C(N)SCc1ccc(Cl)cc1Cl (tested in a mixture with another compound); -2.42% [at 11.4 µM] (inactive)
COC(=O)C/C=C\[C@@H](C)[C@@H](/C=N\O[C@@H](C)CN1CCCc2nc(C)c(C)cc21)NS(=O)(=O)c1ccc(C)cc1; -27.4% [at 11.4 µM] (inactive)

# batch size: 3; output activity, negative = inhibition per entry
1. CCOC(=S)SCC(=O)O
2. Cc1c(NC(=O)Nc2c(Cl)cccc2Cl)c(=O)n(-c2ccccc2)n1C
3. CN(CCC(=O)O)S(=O)(=O)c1ccccc1

38.2% [at 11.4 µM] (inactive)
10.7% [at 11.4 µM] (inactive)
-21.5% [at 11.4 µM] (inactive)

I have 3 compounds here; please give me activity, negative = inhibition for each one.
1. Cn1c(=S)c2[nH]c(SCCN3C(=O)c4ccccc4C3=O)nc2n(C)c1=O
2. O=[N+]([O-])c1ccccc1N=Nc1c(O)[nH]c2ccc(S(=O)(=O)O)cc12
3. Cn1c(=O)n2n(c1=O)[C@H]1[C@H](O)[C@H]3O[C@@H]3/C(=N/OC[C@@H](O)COCc3ccco3)[C@@H]1CC2

17.2% [at 11.4 µM] (inactive)
-23.2% [at 11.4 µM] (inactive)
-21.1% [at 11.4 µM] (inactive)
